Test system: RAW264.7
Experiment: Antiinflammatory activity against LPS-stimulated mouse RAW264.7 cells assessed as inhibition of NO production at 50 uM preincubated with compound for 2 hrs followed by LPS stimulation and measured after 12 hrs by Griess reagent based microplate reader analysis relative to control
Type: functional
Conditions: time 14 hrs
Experimental readout: inhibition at 50 µM

Check out these entries, answers already filled in.
{"Compound structure string": "C/C1=C\\C[C@]2(C)C(=O)C(O)=C([C@H](C)CO)[C@H]2C[C@H]2O[C@]2(C)[C@@H](O)CC/C(C)=C/CC1", "inhibition at 50 µM": "< 40%"}
{"Compound structure string": "CC(=O)OC[C@@H](C)C1=C(O)C(=O)[C@@]2(C)C/C=C(\\C)CC[C@@H]3O[C@@]3(C)CC[C@H](O)/C(C)=C/C[C@H]12", "inhibition at 50 µM": "< 40%"}
{"Compound structure string": "C/C1=C\\C[C@]2(C)C(=O)C(O)=C([C@H](C)CO)[C@H]2C/C=C(\\C)[C@@H]2CC[C@](C)(/C=C/C1)O2", "inhibition at 50 µM": "< 40%"}
{"Compound structure string": "CC(=O)OC[C@@H](C)C1=C(O)C(=O)[C@@]2(C)C/C=C(\\C)CC/C=C(\\C)CC[C@H](O)/C(C)=C/C[C@H]12", "inhibition at 50 µM": "< 40%"}
{"Compound structure string": "CC(=O)OC[C@@H](C)C1=C(O)C(=O)[C@@]2(C)C/C=C(\\C)CC/C=C(\\C)CC[C@H](O)[C@@]3(C)O[C@@H]3C[C@H]12", "inhibition at 50 µM": "< 40%"}

stdin: Need inhibition at 50 µM, item C/C1=C\C[C@]2(C)C(=O)C(O)=C([C@H](C)CO)[C@H]2C/C=C(\C)[C@@H](O)CC/C(C)=C/CC1
stdout: < 40%

stdin: Try the compound CC(=O)OC[C@@H](C)C1=C(O)C(=O)[C@@]2(C)C/C=C(\C)C/C=C/[C@](C)(O)CC[C@@H](O)/C(C)=C/C[C@H]12
stdout: < 40%

stdin: Try the compound CC(=O)O[C@H]1CC/C(C)=C/CC/C(C)=C/C[C@]2(C)C(=O)C(O)=C([C@H](C)CO)[C@H]2C/C=C/1C
stdout: < 40%
